result_type: logP
Hey, just send me the number, nothing else.

## Input What does the data say about its logP? Entry: O=[N+]([O-])c1nccn1C1OCC(I)CC1F (stereo unspecified)
## Output 0.8

* * *

result_type: logP
Hey, just send me the number, nothing else.

## Input What does the data say about its logP? Entry: `CCO[C@@H](Cc1ccc(OC/C=C/C#Cc2ccccc2)cc1)C(=O)O`
## Output 3.87

## Input What does the data say about its logP? Entry: `COC(=O)C(C)(C)Oc1ccc(C(=O)c2ccc(Cl)cc2)cc1`
## Output 4.27

* * *

result_type: logP

## Input What does the data say about its logP? Entry: CCN(CC)CC(=O)NC1c2ccccc2Oc2c(C)cccc21 (stereo not drawn)
## Output 3.73

## Input What does the data say about its logP? Entry: Cc1cccc2c1Oc1cc(Cl)ccc1C2NC(=O)CN(C)C (stereo not drawn)
## Output 3.44

## Input What does the data say about its logP? Entry: Cc1cccc2c1Oc1ccccc1C2NC(=O)CN(C)C (stereo not drawn)
## Output 2.7

* * *

Provide the reported logP of each item.

## Input What does the data say about its logP? Entry: `c1ccc2c(c1)Cc1ccccc1-2`
## Output 4.2

## Input What does the data say about its logP? Entry: `c1ccc2c(c1)ccc1cc3ccc4ccccc4c3nc12`
## Output 6.42

* * *

Binarize logP at 3; below is YES, at or above is NO.

## Input Please check: logP for `O=C1NC(c2ccc(Br)cc2)(c2ccc(Br)cc2)C(=O)N1CCN1CCOCC1` , strictly under 3 or not?
## Output NO

## Input Please check: logP for CCCCCCN1C(=O)NC(Cc2c[nH]c3ccccc23)C1=O (stereo unspecified) , strictly under 3 or not?
## Output NO

## Input Please check: logP for `CCCCCCN1C(=O)NC(c2ccc(Br)cc2)(c2ccc(Br)cc2)C1=O` , strictly under 3 or not?
## Output NO

## Input Please check: logP for `CCCCCCCN1C(=O)NC(c2ccc(Br)cc2)(c2ccc(Br)cc2)C1=O` , strictly under 3 or not?
## Output NO

## Input Please check: logP for `CCCN1C(=O)NC(c2ccccc2)(c2ccccc2)C1=O` , strictly under 3 or not?
## Output YES

* * *

result_type: logP
Hey, just send me the number, nothing else.

## Input What does the data say about its logP? Entry: `c1cc2ccc3ccc4ccc5ccc6ccc1c1c2c3c4c5c61`
## Output 7.64

* * *

Assay: method code SF-AS, from DOI: 10.1016/0378-5173(85)90003-1
Conditions: pH 4.5
result_type: logD
Hey, just send me the number, nothing else.

## Input What does the data say about its logD? Entry: Cc1nnc(SCC2=C(C(=O)OCOC(=O)C(C)(C)C)N3C(=O)C(NC(=O)Cn4cnnn4)C3SC2)s1 (stereo unspecified)
## Output 1.34

* * *

Binarize logP at -0.5; below is label 1, at or above is label 0.

## Input Please check: logP for `CCOc1cc[n+]([O-])cc1` , strictly under -0.5 or not?
## Output label 1

## Input Please check: logP for `Cc1cc[n+]([O-])cc1` , strictly under -0.5 or not?
## Output label 1

## Input Please check: logP for `N#Cc1cc[n+]([O-])cc1` , strictly under -0.5 or not?
## Output label 1

## Input Please check: logP for `[O-][n+]1ccc(Cl)cc1` , strictly under -0.5 or not?
## Output label 0

## Input Please check: logP for `CC(=O)c1cc[n+]([O-])cc1` , strictly under -0.5 or not?
## Output label 1

## Input Please check: logP for `[O-][n+]1cccc2ccccc21` , strictly under -0.5 or not?
## Output label 0
